Measured growth inhibition values are reported for all entries that follow.
Assay: HT29 colon tumor cell growth inhibition, primary screen, imaging, high content imaging, 48 h, CellTiter-Glo (AID 771)
Details: HCS imaging cell count, measured here: ATP CellTiter-Glo viability inhibition, at 10 µM, stronger effect = higher value
Out of some 3,300 compounds screened, about 55 (2%) were called active. The list comes from a sample in which actives are over-represented; it also holds close analogues and randomly drawn compounds.
The response must be a number in % with no trailing unit.

Answered examples (6):
compound="C=CC(O)Cc1c(C)n[nH]c1C (stereo not given)" units=% testvalue=7.27
compound=CCOC(=O)Oc1ccc2c(c1)C(C)=CC(C)(C)N2C(=O)OCC units=% testvalue=33.4
compound=CCCc1nnc(SCc2ccc(OCC)cc2)n1N units=% testvalue=0.5
compound=COc1ccc(OCC(=O)N2CCN(C(=O)c3cccc4ccccc34)CC2)cc1 units=% testvalue=-3.25
compound=O=C1[C@@H]2[C@H](C(=O)N1O)[C@H]1C=C[C@@H]2C1 units=% testvalue=-19.1
compound=Cc1nc(=O)c(-c2ccccc2)c(C)n1-c1ccc(S(N)(=O)=O)cc1 units=% testvalue=-8.56

Look at this compound and give its reported growth inhibition. O=C(O)c1ccc(COCC(F)(F)C(F)F)o1
-10.2

Tell me the measured growth inhibition of CC(=O)c1ccc(O)c(CO)c1 , please.
-11.8

# input compound: CN(C)CC(O)COc1ccc(C(C)(C)c2ccc(OCC(O)CN(C)C)cc2)cc1 (stereo not given) ; wanted: its growth inhibition
95.7

What value of growth inhibition has been reported for the following compound? CC(C)Cc1[nH]c(=O)c(C#N)c2c1COC(C)(C)C2
6.82

// lookup growth inhibition for CCn1cc(C(=O)NCCc2ccccc2)c(=O)c2cc(F)c(N3CCN(C)CC3)cc21
89.7

For CCOC(=O)C1=C(C)NC(SCC(=O)Nc2nc(C)cs2)=C(C#N)C1c1cccs1 (stereo not given) , what is its reported growth inhibition?
77.6

Please give the measured growth inhibition for this compound: COc1ccc(C(=O)CSC2=C(C#N)C3(CCCCC3)C(C#N)=C(N)N2)cc1
4.09

Item CCOc1ccc(-c2nn3c(-c4ccc(OC)cc4)nnc3s2)cc1 has what recorded growth inhibition?
4.54

What does the data say about its growth inhibition? Entry: CCCOc1ccc(/C(O)=C2/C(=O)C(=O)N(CCN3CCOCC3)C2c2ccccc2)cc1 (stereo not given)
-7.42

Quick one: growth inhibition for CCCn1nnc(NC(=O)c2cc(Br)cc(Br)c2OC)n1 ?
-15.1

I would be grateful if you could share the reported growth inhibition for N#CC1=C(N)NC(SCc2ccc(F)cc2)=C(C#N)C12CCCCC2 .
69.3

Reported growth inhibition, compound CN(C)CC(O)COc1cccc(OCC(O)CN(C)C)c1 (stereo not given) : ____
-7

====

Experiment: HT29 colon tumor cell growth inhibition, primary screen, imaging, high content imaging, 48 h, CellTiter-Glo (AID 771)
Settings: HCS imaging cell count, measured here: ATP CellTiter-Glo viability inhibition, at 10 µM, stronger effect = higher value
In all, about 3,300 compounds went through this assay and about 55 (2%) were called active. This is one part of a sample in which actives are shown more often than they occur.
testReadout: growth inhibition (%)
Return type: number; implicit unit %.

compound="CC1=C(C(=O)Nc2ccccc2)C(c2ccncc2)C(C#N)=C(SCC(=O)NC(C)C)N1 (configuration not stated)" testreadout="growth inhibition" testvalue=0.29
compound=CCOc1c(C)cc2[nH]c(CCC(=O)O)nc2c1C testreadout="growth inhibition" testvalue=7.89
compound="CCCCC(=O)NC(Nc1ccc(C)cn1)(C(=O)OCC)C(F)(F)F (configuration not stated)" testreadout="growth inhibition" testvalue=-18.7
compound=CC1(C)Cc2c(c(-c3ccccc3)[nH]c(=O)c2C#N)CS1 testreadout="growth inhibition" testvalue=27.6
compound="Cn1c(=NCC(O)COc2ccccc2)sc2ccccc21 (configuration not stated)" testreadout="growth inhibition" testvalue=-13.5

Entry CC(C)(C)C1CCC2(CC1)C(C#N)=C(SCC(=O)Nc1ccccc1)NC(=O)C2C#N (configuration not stated) : reported growth inhibition = ?
71.8

Reported growth inhibition for CCOC(=O)C1=C(C)N=C2SC(C)C(=O)N2C1c1ccc(OC(C)=O)c(OC)c1 (configuration not stated) : what is it?
12.7

Please give the measured growth inhibition for this compound: O=c1/c(=C/c2ccccn2)sc2n1CN(c1ccccc1)CN=2
3.13

So what does the record say about growth inhibition for CC(C)C1Cc2c(C#N)c(N)sc(=S)c2CO1 (configuration not stated) ?
-10.1

Tell me the measured growth inhibition of CCOC(=O)c1ccccc1OCc1cc(/C=N/n2cncn2)ccc1OC , please.
6.4

# get_value(readout='growth inhibition', item= Fc1ccc(-c2cnc[nH]2)cc1 )
-20.5

Look at this compound and give its reported growth inhibition. CCOC(=O)c1[nH]c2ccc(F)cc2c1N=C(C)N(CC)CC
-22.6

====

Experiment: HT29 colon tumor cell growth inhibition, primary screen, imaging, high content imaging, 48 h, CellTiter-Glo (AID 771);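 on condensed nuclei: condensed means Hoechst nuclear area under control median minus 1.5 SD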
Settings: HCS imaging cell count, measured here: percent cells with condensed nuclei, at 10 µM, stronger effect = higher value
The whole screen tested about 3,300 compounds, of which about 55 (2%) were called active. Shown is part of a subset that was picked to be rich in actives.
testReadout: condensed nuclei
# include the unit after the value

compound="COC(=O)C1CCN(c2nc3ccccc3nc2C(C#N)C(=O)NCCc2ccccc2)CC1 (stereo not given)" testvalue=3.61%
compound=O=c1c(C=NCCCn2ccnc2)c(-c2ccccc2)[nH]n1-c1nc2ccccc2s1 testvalue=3.29%
compound=CCOc1ccc(-c2nn3c(-c4ccc(OC)cc4)nnc3s2)cc1 testvalue=2.81%
compound=c1cncc(-c2nnc3sc(-c4ccco4)nn23)c1 testvalue=21.4%

We now examine a further compound.
Look up condensed nuclei for this compound: N=c1c2c(-c3ccccc3)c(-c3ccccc3)n(Cc3ccccc3)c2ncn1CCCn1ccnc1
41.1%

====

In this section, each of the compounds is paired with its reported condensed nuclei.
Assay: HT29 colon tumor cell growth inhibition, primary screen, imaging, high content imaging, 48 h, CellTiter-Glo (AID 771);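 on condensed nuclei: condensed means Hoechst nuclear area under control median minus 1.5 SD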
Conditions: HCS imaging cell count, measured here: percent cells with condensed nuclei, at 10 µM, stronger effect = higher value
The campaign covered roughly 3,300 compounds. About 55 (2%) were called active. The full list was thinned out, with actives kept by preference.
Write the quantity with the unit trailing the number.

compound=Cc1cccc(OCC(=O)N2CCC(N3CCOCC3)CC2)c1 testreadout="condensed nuclei" testvalue=0.89%

Item CNCCCC1c2ccccc2C=Cc2ccccc21 has what recorded condensed nuclei?
25%

What does the data say about its condensed nuclei? Entry: CNCCC(Oc1ccc(C(F)(F)F)cc1)c1ccccc1 (stereo not given)
23.4%

Dear colleague, I am looking for the recorded condensed nuclei of the following compound: CCn1nnc(C(=O)O)c1C(=O)O
2.3%

Value lookup for condensed nuclei; key = Cc1ccc2nc(NCc3ccccc3)[nH]c2c1
19.4%

What condensed nuclei value was documented for this compound, C[C@]12CC[C@@H]3c4ccc(OC(=O)c5ccccc5)cc4CC[C@H]3[C@@H]1CC[C@@H]2O ?
22.1%

I'd like to know its condensed nuclei. The compound in question is CCNC(=O)Nn1c(C)nnc1C
1.64%

For Cc1c(=O)n(OCc2c(F)cccc2F)c2ccccc2[n+]1[O-] , what is its reported condensed nuclei?
2.94%

Any idea what its condensed nuclei is? The compound is Cc1ccc(-c2nn(C)c(=O)c3ccccc23)cc1CNC(=O)CSc1nc2ccccc2o1
1%

Entry C[C@]12CC[C@@H]3c4ccc(O)cc4CC[C@H]3[C@@H]1CC[C@@H]2OC(=O)CCC(=O)O : reported condensed nuclei = ?
0.84%

Quick one: condensed nuclei for CCCc1nnc(NC(=O)c2c(O)c3c([nH]c2=O)CCCC3)s1 ?
7.28%

Recorded condensed nuclei of COC(=O)Nc1nc2ccc(Sc3ccccc3)cc2[nH]1 , please.
42%

State the recorded condensed nuclei for this entry: CCCOc1ccc2nc(NC(=O)OC)[nH]c2c1
35.7%

====

Assay: HT29 colon tumor cell growth inhibition, primary screen, imaging, high content imaging, 48 h, CellTiter-Glo (AID 771)
Conditions: HCS imaging cell count, measured here: ATP CellTiter-Glo viability inhibition, at 10 µM, stronger effect = higher value
Among all 3,300 compounds or so, about 55 (2%) were called active. This excerpt belongs to a sample that is enriched for actives.
testReadout: growth inhibition
Include the unit after the number when you answer.

compound=CC1(C)Cc2c(C#N)c(SCC(=O)c3ccccc3)nc(N3CCOCC3)c2CS1 testvalue=76.7%
compound=COCc1cc(=O)[nH]c(Nc2nc3ccccc3o2)n1 testvalue=76.3%
compound="COCCOC(=O)C1=C(C)NC(SCC(=O)NC(C)(C)C)=C(C#N)C1c1ccco1 (centres undefined)" testvalue=-24.4%

What growth inhibition value was documented for this compound, N#CC12CCCCC1CC1CCCCC1(C#N)N2Cc1cccnc1 (centres undefined) ?
-2.93%
